system name: Corticotropin-releasing factor receptor 2/Corticotropin-releasing factor-binding protein (Homo sapiens, UniProt P24387+Q13324)
Sequence (Q13324 whole entry): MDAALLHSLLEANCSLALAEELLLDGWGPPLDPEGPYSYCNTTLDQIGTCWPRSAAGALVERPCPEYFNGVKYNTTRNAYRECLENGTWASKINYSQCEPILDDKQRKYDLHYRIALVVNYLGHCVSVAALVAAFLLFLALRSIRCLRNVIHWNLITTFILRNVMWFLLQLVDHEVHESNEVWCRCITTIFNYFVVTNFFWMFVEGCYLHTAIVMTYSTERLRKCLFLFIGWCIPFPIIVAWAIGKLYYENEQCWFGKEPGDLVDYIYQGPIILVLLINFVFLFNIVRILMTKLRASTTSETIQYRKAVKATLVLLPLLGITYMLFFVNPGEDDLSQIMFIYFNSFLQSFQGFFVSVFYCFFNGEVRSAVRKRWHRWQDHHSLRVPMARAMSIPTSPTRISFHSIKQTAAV
Sequence (P24387 whole entry): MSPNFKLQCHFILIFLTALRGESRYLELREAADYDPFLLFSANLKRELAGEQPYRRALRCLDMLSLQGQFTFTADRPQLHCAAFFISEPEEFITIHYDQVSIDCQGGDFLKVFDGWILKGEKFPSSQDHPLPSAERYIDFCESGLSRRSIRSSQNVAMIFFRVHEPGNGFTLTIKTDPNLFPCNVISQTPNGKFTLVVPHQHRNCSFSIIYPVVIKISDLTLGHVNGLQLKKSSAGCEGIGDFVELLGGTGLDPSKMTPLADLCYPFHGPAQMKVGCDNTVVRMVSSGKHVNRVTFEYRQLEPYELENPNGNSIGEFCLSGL
run description: Dose Response confirmation of uHTS hits for small molecule antagonists of the CRF-binding protein and CRF-R2 receptor complex.
Format: functional
assay context: read-out: IC50_Mean
Calls of active or inactive are those of the source.
Outcomes: label 1 for active, label 0 for inactive

O=c1cc(-c2ccccc2)ss1; label 0
NC1=NC(=O)S/C1=C\c1ccc(O)cc1; label 0
COc1ccc(NC(=O)Nc2nnc(C(C)(C)C)s2)cc1; label 0
O=C(NCc1ccccc1)C1=C[C@H](c2ccccc2)C[C@H](OCc2ccc(CO)cc2)O1; label 0
COCCNC(=S)N1CCc2cc(OC)c(OC)cc2C1COc1ccc(C(C)C)cc1 (stereo unspecified); label 0
Brc1ccc(CSc2nnc(Cc3c[nH]c4ccccc34)o2)cc1; label 0
CN(CCOc1ccc(Cl)cc1)C(=O)C1CCN(C(=O)c2ccc(Cl)cc2)CC1; label 1
O=C(NC(=S)NCC1CCCO1)C(c1ccccc1)c1ccccc1 (stereo unspecified); label 0
COc1ccc(CN(C)Cc2nc3scc(-c4ccccc4)c3c(=O)[nH]2)cc1OC; label 0
O=C(c1ccc(F)cc1Cl)N(Cc1ccco1)C1CCS(=O)(=O)C1 (stereo unspecified); label 0
O=C(O)C1CC(=O)N(CCOc2ccccc2)C1 (stereo unspecified); label 0

###

Reported IC50 values for the following compounds.
system name: Fatty acid synthase (Homo sapiens, UniProt P49327)
Sequence (P49327 whole entry): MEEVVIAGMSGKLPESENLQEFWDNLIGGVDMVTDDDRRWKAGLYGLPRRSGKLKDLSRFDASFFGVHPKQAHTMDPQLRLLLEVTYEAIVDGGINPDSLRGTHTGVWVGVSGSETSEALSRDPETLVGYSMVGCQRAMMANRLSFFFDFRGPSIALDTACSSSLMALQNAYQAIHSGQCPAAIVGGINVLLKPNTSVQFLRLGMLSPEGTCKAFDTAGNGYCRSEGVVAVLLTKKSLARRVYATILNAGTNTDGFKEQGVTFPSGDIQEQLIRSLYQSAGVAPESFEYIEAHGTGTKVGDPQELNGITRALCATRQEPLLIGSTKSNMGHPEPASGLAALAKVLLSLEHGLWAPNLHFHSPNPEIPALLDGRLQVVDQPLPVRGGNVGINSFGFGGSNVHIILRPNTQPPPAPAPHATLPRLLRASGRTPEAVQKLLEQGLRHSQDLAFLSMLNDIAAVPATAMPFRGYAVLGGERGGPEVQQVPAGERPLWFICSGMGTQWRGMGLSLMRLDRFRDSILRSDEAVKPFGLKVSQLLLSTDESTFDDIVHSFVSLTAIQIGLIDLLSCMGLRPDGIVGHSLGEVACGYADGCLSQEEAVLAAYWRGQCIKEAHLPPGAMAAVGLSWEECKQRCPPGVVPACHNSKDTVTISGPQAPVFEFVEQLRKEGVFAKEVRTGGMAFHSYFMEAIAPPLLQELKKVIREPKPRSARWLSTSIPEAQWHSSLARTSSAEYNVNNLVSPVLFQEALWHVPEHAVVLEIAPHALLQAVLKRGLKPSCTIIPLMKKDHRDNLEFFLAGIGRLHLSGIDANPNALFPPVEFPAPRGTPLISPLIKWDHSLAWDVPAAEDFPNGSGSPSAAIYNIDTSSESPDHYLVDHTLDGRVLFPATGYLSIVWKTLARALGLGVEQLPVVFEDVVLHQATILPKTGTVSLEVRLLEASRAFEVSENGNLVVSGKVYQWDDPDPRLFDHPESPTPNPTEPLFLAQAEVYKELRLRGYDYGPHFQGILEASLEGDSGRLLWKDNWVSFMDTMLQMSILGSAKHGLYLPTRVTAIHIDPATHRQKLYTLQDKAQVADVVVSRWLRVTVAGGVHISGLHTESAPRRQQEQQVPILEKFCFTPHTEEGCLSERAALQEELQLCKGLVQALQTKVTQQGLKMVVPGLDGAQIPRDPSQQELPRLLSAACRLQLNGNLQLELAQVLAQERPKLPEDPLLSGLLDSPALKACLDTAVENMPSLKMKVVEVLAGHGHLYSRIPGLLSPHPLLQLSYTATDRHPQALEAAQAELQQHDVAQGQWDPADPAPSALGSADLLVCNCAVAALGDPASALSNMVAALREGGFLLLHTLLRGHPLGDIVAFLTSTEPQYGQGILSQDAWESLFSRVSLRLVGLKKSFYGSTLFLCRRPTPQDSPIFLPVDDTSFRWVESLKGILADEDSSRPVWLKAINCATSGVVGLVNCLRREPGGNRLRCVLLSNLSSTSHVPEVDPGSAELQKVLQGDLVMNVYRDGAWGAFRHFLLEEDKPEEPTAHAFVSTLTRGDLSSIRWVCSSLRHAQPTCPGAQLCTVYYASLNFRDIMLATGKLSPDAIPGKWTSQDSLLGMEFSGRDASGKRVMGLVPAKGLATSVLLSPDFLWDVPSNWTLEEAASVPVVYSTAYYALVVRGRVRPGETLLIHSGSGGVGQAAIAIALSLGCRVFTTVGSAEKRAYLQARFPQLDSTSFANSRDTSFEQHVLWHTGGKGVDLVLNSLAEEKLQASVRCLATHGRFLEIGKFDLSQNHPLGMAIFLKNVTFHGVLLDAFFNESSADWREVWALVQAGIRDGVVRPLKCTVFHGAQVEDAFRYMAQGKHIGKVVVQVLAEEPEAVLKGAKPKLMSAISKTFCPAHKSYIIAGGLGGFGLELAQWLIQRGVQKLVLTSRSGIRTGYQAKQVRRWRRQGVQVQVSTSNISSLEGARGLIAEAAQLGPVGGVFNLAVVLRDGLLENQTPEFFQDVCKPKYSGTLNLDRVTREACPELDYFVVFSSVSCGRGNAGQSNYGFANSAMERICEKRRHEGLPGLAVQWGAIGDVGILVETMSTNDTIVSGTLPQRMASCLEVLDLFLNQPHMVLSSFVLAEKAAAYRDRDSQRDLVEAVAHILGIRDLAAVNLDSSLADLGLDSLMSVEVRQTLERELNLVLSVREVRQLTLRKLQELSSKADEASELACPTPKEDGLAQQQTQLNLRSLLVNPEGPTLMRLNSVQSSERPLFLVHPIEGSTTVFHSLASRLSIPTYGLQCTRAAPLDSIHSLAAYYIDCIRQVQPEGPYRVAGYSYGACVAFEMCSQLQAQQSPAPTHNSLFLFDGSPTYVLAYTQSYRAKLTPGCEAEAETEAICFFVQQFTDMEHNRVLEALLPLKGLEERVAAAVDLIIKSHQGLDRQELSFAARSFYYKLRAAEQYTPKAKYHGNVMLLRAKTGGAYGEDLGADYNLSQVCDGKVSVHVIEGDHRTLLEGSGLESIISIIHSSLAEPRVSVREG
run description: inhibition of human FAS-TE enzyme activity – biochemical, endpoint fluorescence intensity, uHTS hits, dose response (AID 624327);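 also: fluorescence from hydrolysis of an O-methyl fluorescein acyl ester substrate by the enzyme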
Type: functional
Activity calls are given as the source filed them.
measure name: IC50

CC(C)(C)OC(=O)N1CCC(c2cc(O)n3ncc(C(=O)Nc4ccc(F)c(Cl)c4)c3n2)CC1; 8.24 µM (active)
Cc1ccc(-c2nnc3ccc(SCC(=O)N4CCCc5ccccc54)nn23)cc1; 4.07 µM (active)
C/C(=N\Nc1ccccn1)c1ccc(S(=O)(=O)NCc2ccco2)cc1; 13.7 µM (active)
CCN(CC)c1cc2nonc2c2nonc12; 15.9 µM (active)
O=C(O)COc1ccccc1C(Nc1ccccn1)c1cc(Cl)c2cccnc2c1O (configuration not stated); 18.5 µM (active)
COc1ccc([N+](=O)[O-])cc1/C=N/NC(=O)/C(=C\c1cccs1)NC(=O)c1ccccc1; 2.62 µM (active)
O=C(Cn1cc([N+](=O)[O-])ccc1=O)NCc1ccc(Cl)cc1Cl; 15.8 µM (active)

###

system name: Cytochrome P450 2C9 (Homo sapiens)
Sequence (P11712 whole entry): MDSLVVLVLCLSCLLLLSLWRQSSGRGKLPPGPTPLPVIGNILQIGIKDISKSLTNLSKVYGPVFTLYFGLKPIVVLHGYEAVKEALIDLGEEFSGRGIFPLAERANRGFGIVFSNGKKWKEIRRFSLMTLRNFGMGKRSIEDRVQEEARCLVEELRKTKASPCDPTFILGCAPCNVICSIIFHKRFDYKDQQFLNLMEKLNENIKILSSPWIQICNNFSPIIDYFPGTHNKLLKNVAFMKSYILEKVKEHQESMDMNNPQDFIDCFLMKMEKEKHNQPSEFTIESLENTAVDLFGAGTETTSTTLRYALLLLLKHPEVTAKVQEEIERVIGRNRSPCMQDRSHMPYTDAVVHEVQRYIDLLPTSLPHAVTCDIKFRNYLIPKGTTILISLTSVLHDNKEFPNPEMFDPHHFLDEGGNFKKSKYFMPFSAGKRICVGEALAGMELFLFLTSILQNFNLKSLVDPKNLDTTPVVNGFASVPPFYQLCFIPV
Reported AC50 values for the following molecules.
measure name: AC50

NC(S)=Nc1cc2ccccc2c2ccccc12; 0.282 µM (inconclusive)
Cc1cccc(C(=O)N/N=C/c2ccc(OCC(=O)N3CCCCC3)cc2)c1; 39.8 µM (inconclusive)
CCCCN1CSC(=S)N(Cc2ccccc2)C1; 7.94 µM (inconclusive)
O=C(c1ccco1)N1CCN(C(=O)C2(S(=O)(=O)c3ccc(Cl)cc3)CC2)CC1; 17.8 µM (inconclusive)
Cc1ccc(NC(=O)CCC(=O)c2ccc(F)cc2)cc1Cl; 0.891 µM (inconclusive)

These data points were gathered from ChEMBL document CHEMBL1201862.
